- test method notes: pharmacokinetics in the human body
- Type: in vivo
- condition notes: serum; human body
endpoint name: half-life

In: Indicate its recorded half-life; the compound in question is COc1cc2nccc(Oc3ccc(NC(=O)Nc4cc(C)on4)c(Cl)c3)c2cc1OC [tivozanib]
Out: 3.8 to 4.7 days

Hey, just so you know, these numbers are from patent US7998973B2.
